molecular target: T1, cynomolgus Gal10-His (WGS isoform) (cynomolgus); experiment: SPR Biacore 3000, hFab on cynomolgus Gal10-His (WGS) captured by anti-His CM5
T1 construct: also called cynomolgus antigen
metric-name: kon
Record the result as number plus unit.

Suppose we examine the binder g7B07 (human Fab) (Fab, V domains shown, Human Fab backbone; their format is not certain; also called g7B07-hFab; germlined 7B07) VH: EVQLLESGGGLVQPGGSLRLSCAASGFTFRSYDMSWVRQAPGKGLEWVSAIKNGGGITYYADSVKGRFTISRDNSKNTLYLQMNSLRAEDTAVYYCATTHGIGTLGFGSWGQGTLVTVSS VL: SYELTQPLSVSVALGQTARITCDGNNIGSKSAQWYQQKPGQAPVLVIYADEYRPEGIPERFSGSNSGNTATLTISRAQAGDEADYYCQVWDGSAAVFGGGTQLTVL ; what kon value has been reported?
1.9e+06 M⁻¹ s⁻¹
